# System: HOP-92
# Method: NCI tumour cell line growth inhibition, 48 h
Active and inactive are the calls of the source. Cut-off read from the data, not from the text of the source: active = GI50 up to about 1.1 µM and inactive = higher.
Assay Readout: GI50

Worked examples, 10 compounds total:
Look up and report measured GI50 (HOP-92) for the following compound: `O=C(CCc1ccc(O)cc1)NCCc1ccc(O)cc1`
> 100 µM (inactive)

Give the observed GI50 of CC1(C)CCC[C@@]2(C)C1CC[C@@]1(CO1)[C@@H]2/C=C\C(C=O)CC=O (stereo partly drawn) for HOP-92.
> 100 µM (inactive)

Report value: GI50, system: HOP-92, compound: COc1cc2c(cc1OC)[C@H]1C(COC(=O)c3ccccc3)CS/C(=N/c3ccccc3)N1CC2 (stereo partly drawn)
8.17 µM (inactive)

Report value: GI50, system: HOP-92, compound: `O=c1[nH]nc(Cc2ccc(Cl)cc2)n1Nc1ccccc1`
> 100 µM (inactive)

State GI50 on HOP-92. Entry: `Cc1oc2c(cc(O)c3cc(O)ccc32)c2cccc1-2`
> 100 µM (inactive)

Provide the reported GI50 (system: HOP-92) for `C/C(=N\NC(=S)N1CCN(c2ccccn2)CC1)c1ncccn1`
1.63 µM (inactive)

Find the measured GI50 of `N#Cc1ccc(/C=N/NC(=O)CSCC(=O)N/N=C/c2ccc(C#N)cc2)cc1` with HOP-92 as test system.
> 100 µM (inactive)

Enter measured GI50, system HOP-92, for the compound shown: `NNC(=O)c1ccccc1NC(=O)/C(=C/c1ccccc1)NC(=O)c1ccccc1`
> 100 µM (inactive)

Tell me GI50 of `CS(=O)(=O)OCCCCOS(=O)(=O)CF` when tested on HOP-92.
> 49.5 µM (inactive)

Provide HOP-92 GI50 reading for `O=S(=O)(O)c1cccc2c(/N=N/c3c(O)ccc4ccccc34)cccc12` .
> 100 µM (inactive)

Further cases:
Find GI50 for `Fc1c(F)c(C(F)(F)F)c(F)c(F)c1N/N=C\c1c[nH]c2ccccc12` on HOP-92 and write it down.
3.61 µM (inactive)

Fetch value of GI50 on HOP-92 for `CCOC(=O)CCCn1nnc(C(=O)OCC)c1C(=O)OCC` .
> 100 µM (inactive)

Report GI50 from HOP-92 testing of COC(=O)C(CCCCCCCC(C(=O)OC)C1=Nc2nnc(N)n2C1=O)C1=Nc2nnc(N)n2C1=O (stereo not drawn)
65.8 µM (inactive)
